assay: Permeability of the compound at pH 7.4 after 30 mins by PAMPA; type: ADME; conditions: read-out: permeability
Property measured: Papp at 0.5 h
Just so you know, I need the unit written after the number.

COc1cccc(CNCCCNc2ccnc3cc(Oc4ccc(C(C)(C)C)cc4)ccc23)c1O
317 ×10⁻⁶ cm/s
COc1cccc(CNCCCNc2ccnc3cc(CC4CCCCC4)ccc23)c1O
23 ×10⁻⁶ cm/s
c1coc(CNCCCNc2ccnc3cc(Cc4ccc5c(c4)OCO5)ccc23)c1
237 ×10⁻⁶ cm/s
COc1cccc(CNCCCNc2ccnc3cc(-c4ccc(C(C)(C)C)cc4)ccc23)c1O
237 ×10⁻⁶ cm/s

Kindly consider the entry below.
Task: For the compound shown here, Fc1ccc(-c2ccc3c(NCCCNCc4ccco4)ccnc3c2)cc1 , give the reported Papp at 0.5 h.
Output: 237 ×10⁻⁶ cm/s

---

Form field: Papp at 0.5 h (one value per entry).
test: Permeability of the compound at pH 7.4 after 30 mins by PAMPA; type: ADME; details: read-out: permeability
Give just the number in ×10⁻⁶ cm/s; leave the unit off.

Previously resolved entries follow.
COc1cccc(CNCCCNc2ccnc3cc(CC(C)C)ccc23)c1O
23
COc1ccc(F)cc1CNCCCNc1ccnc2cc(Oc3cccc(N(C)C)c3)ccc12
317
c1ccc(Oc2ccc3c(NCCCNCc4ccco4)ccnc3c2)cc1
317
COc1ccccc1Oc1ccc2c(NCCCNCc3ccco3)ccnc2c1
317
COc1ccc(F)cc1CNCCCNc1ccnc2cc(CC(C)C)ccc12
23
COc1ccc(F)cc1CNCCCNc1ccnc2cc(Cc3ccc(C#N)cc3)ccc12
23
COc1cccc(CNCCCNc2ccnc3cc(C4CCCCC4)ccc23)c1O
23
COc1cccc(Oc2ccc3c(NCCCNCc4ccco4)ccnc3c2)c1
317

Task: For the compound shown here, c1ccc(Cc2ccc3c(NCCCNCc4ccco4)ccnc3c2)cc1 , give the reported Papp at 0.5 h.
Output: 23

Task: For the compound shown here, CCC(CC)c1ccc2c(NCCCNCc3ccc4c(c3)OCO4)ccnc2c1 , give the reported Papp at 0.5 h.
Output: 23

Task: For the compound shown here, FC(F)(F)c1cccc(Cc2ccc3c(NCCCNCc4ccc5c(c4)OCO5)ccnc3c2)c1 , give the reported Papp at 0.5 h.
Output: 23

Task: For the compound shown here, COc1ccc(-c2ccc3c(NCCCNCc4ccc5c(c4)OCO5)ccnc3c2)cc1 , give the reported Papp at 0.5 h.
Output: 237

Task: For the compound shown here, COc1ccccc1Oc1ccc2c(NCCCNCc3cccc(OC)c3O)ccnc2c1 , give the reported Papp at 0.5 h.
Output: 317

Task: For the compound shown here, COc1ccc(F)cc1CNCCCNc1ccnc2cc(-c3cccc4ccccc34)ccc12 , give the reported Papp at 0.5 h.
Output: 237

Task: For the compound shown here, COc1ccc(F)cc1CNCCCNc1ccnc2cc(Cc3ccc4c(c3)OCO4)ccc12 , give the reported Papp at 0.5 h.
Output: 237

Task: For the compound shown here, CC(C)(C)c1ccc(-c2ccc3c(NCCCNCc4ccc5c(c4)OCO5)ccnc3c2)cc1 , give the reported Papp at 0.5 h.
Output: 237

Task: For the compound shown here, COc1ccc(Oc2ccc3c(NCCCNCc4cccc(OC)c4O)ccnc3c2)cc1 , give the reported Papp at 0.5 h.
Output: 317

Task: For the compound shown here, CCC(CC)c1ccc2c(NCCCNCc3cc(F)ccc3OC)ccnc2c1 , give the reported Papp at 0.5 h.
Output: 23

Task: For the compound shown here, COc1cccc(CNCCCNc2ccnc3cc(Oc4ccc(F)cc4)ccc23)c1O , give the reported Papp at 0.5 h.
Output: 317

Task: For the compound shown here, COc1ccc(-c2ccc3c(NCCCNCc4cc(F)ccc4OC)ccnc3c2)cc1 , give the reported Papp at 0.5 h.
Output: 237

Task: For the compound shown here, FC(F)(F)c1cc(-c2ccc3c(NCCCNCc4ccc5c(c4)OCO5)ccnc3c2)cc(C(F)(F)F)c1 , give the reported Papp at 0.5 h.
Output: 237

These entries and their values trace back to ChEMBL document CHEMBL1833887.
